# method: NCI Yeast Anticancer Drug Screen. Data for the sgs1 mgt1 strain (AID 161)
# cond: S. cerevisiae sgs1 mgt1 strain, at 50.0 µM (retest, dose inferred, filed as 5.0)
The panel holds about 79,000 compounds, 15% with a hit somewhere; the sample as a whole holds those more often. Active and inactive are the calls of the source. Cut-off read from the data, not from the text of the source: active = growth inhibition above about 70%; inactive = the rest.
Allowed answers: t for active, f for inactive

Answered examples (5):
| compound | group |
| --- | --- |
| O=C(O)CCC(=O)c1ccc2c(c1)CCCC2 | f |
| CCN(CC)CCNc1cc(C)nc2c1ccc1c2ccc2c(NCCN(CC)CC)cc(C)nc21 | t |
| COC1OC(CBr)C(OC(C)=O)C(OC(C)=O)C1OC(C)=O (configuration not stated) | f |
| COc1cc(Nc2ccc(O)cc2)c2ncccc2c1 | t |
| O=[N+]([O-])c1ccc(CO)o1 | f |

IN: What classification did CCCCCCC(O)CCOC(C)=O (configuration not stated) end up with in this test?
OUT: f

IN: Dear all, I need the recorded test outcome for `CCCCCCCC/C=C\CCCCCCCC(=O)NCC[N+](C)(C)C` , thank you.
OUT: t
